Target: T1, hIL2-DM-his (human, UniProt P60568 21-153)
T1 construct: expressed in ExpiCHO-S cells, nickel-column purified; also called hIL-2 mutein containing two point mutations K64G and N90R (with a his-tag); not shown: his-tag
T1 sequence (P60568 21-153 K84G/N110R): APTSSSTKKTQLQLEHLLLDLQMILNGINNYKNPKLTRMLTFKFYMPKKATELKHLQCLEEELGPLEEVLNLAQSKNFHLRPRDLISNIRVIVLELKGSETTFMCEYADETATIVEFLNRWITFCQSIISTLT
Assay: BLI ForteBio, Ab on Protein A sensor
Value kind: Kd
Give the value; after it, write the unit.

Use the examples below as a reference point.
I would be grateful if you could share the reported Kd for K3G5 (antibody, V domains shown) VH: QVQLVQSGAEVKKPGATVKISCKVSGDTITAYYMHWVRQAPGQGLEWIGRIDPEDDSTKYAENFKGRVTITADTSTDTAYMELSSLRSEDTAVYYCTTVTFYYTRELRWFAYWGQGTLVTVSS VL: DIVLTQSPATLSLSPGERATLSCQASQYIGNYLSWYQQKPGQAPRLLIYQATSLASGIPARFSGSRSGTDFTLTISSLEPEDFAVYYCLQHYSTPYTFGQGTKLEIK .
3.72 nM

// returns reported Kd for input K4G12 (antibody, V domains shown) VH: QVQLVQSGAEVKKPGATVKISCKVSGDTITAYYMHWVRQAPGQGLEWIGRIDPDDDSTKYAENFKGRVTITADTSTDTAYMELSSLRSEDTAVYYCTTITFLYTRELRWFAYWGQGTLVTVSS VL: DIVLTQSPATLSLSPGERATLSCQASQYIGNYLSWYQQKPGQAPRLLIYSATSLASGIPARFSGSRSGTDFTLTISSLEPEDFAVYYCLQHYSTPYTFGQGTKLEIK
0.686 nM

# evaluate next
Dear colleague, I am looking for the recorded Kd of the following binder: K3G3 (antibody, V domains shown) VH: QVQLVQSGAEVKKPGATVKISCKVSGDTITAYYMHWVRQAPGQGLEWIGRIDPDDDSTKYAENFKGRVTITADTSTDTAYMELSSLRSEDTAVYYCTTVTFYYSRELRWFAYWGQGTLVTVSS VL: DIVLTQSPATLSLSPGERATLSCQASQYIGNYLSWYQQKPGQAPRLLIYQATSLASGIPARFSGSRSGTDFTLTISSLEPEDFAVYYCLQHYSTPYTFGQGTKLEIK
3.34 nM
